Taken from PubChem BioAssay (NCI).

// reported growth for each item listed
- Test system: OVCAR-3 ovarian
- run description: NCI-60 one-dose screen, 48 h (100 = growth as untreated, 0 = no growth, -100 = all killed)
- test context: 10 µM unless noted
The panel holds about 83,000 compounds, 20% with a hit somewhere; the sample as a whole holds those more often.
readout kind: growth (%)

# compound, test system, experimental result
data = [
    ("N#C/C(=C/c1ccc([N+](=O)[O-])cc1)c1nnc(NC(=O)c2ccc(-n3c(=O)[nH]c4ccccc4c3=O)cc2)s1", "OVCAR-3 ovarian", 103),
    ("COc1ccc(-c2cc(C)nc3[nH]c(=O)sc23)cc1", "OVCAR-3 ovarian", 67.1),
    ("Cc1ccc2nc(SCc3ccccc3F)n(-c3ccccc3)c(=O)c2c1", "OVCAR-3 ovarian", 115),
    ("C[C@@H]1CN(c2ccc3ncc(C#Cc4cncc(C(=O)Nc5ccc(CN6CCN(C)CC6)c(C(F)(F)F)c5)c4)n3n2)C[C@@H](C)O1", "OVCAR-3 ovarian", -60.6),
    ("OCCn1cc(-c2nc3ccc4[nH]ncc4c3c3c2CCCC3)cn1", "OVCAR-3 ovarian", 58.8),
    ("Cc1ccc(C(C(=O)NC2CCCCC2)N(Cc2ccccc2Cl)C(=O)c2ccc(CN3CCOCC3)o2)o1 (centres undefined)", "OVCAR-3 ovarian", 110),
    ("Cc1ccc(C(=O)Nc2ccc(-n3ccnc3)c(C(F)(F)F)c2)cc1C#Cc1cnc2cccnn12", "OVCAR-3 ovarian", 45.4),
    ("COc1ccc(-c2cc(-c3ccccc3)c(C#N)c(=O)[nH]2)cc1S(N)(=O)=O", "OVCAR-3 ovarian", 109),
    ("Cc1ccc2nc(COc3ccc(C(=O)NNC(=O)Nc4ccc(Cl)c(C(F)(F)F)c4)cc3)[nH]c2c1", "OVCAR-3 ovarian", 28.9),
    ("O=C(Nc1ccc(F)cc1)Nc1nc2ccc([N+](=O)[O-])cc2s1", "OVCAR-3 ovarian", 22.6),
    ("Clc1ccc(-c2nc3ccc(-c4nnc(SCc5ccccc5)o4)cc3[nH]2)cc1", "OVCAR-3 ovarian", -1.55),
    ("COc1ccc(N=Nc2c(N)nn3c(N)c(C#N)c(-c4ccc(C)cc4)nc23)cc1", "OVCAR-3 ovarian", 15.2),
    ("Cc1cc(C(NC(=O)CCCCCNc2cccc3c2C(=O)N(C2CCC(=O)CC2=O)C3=O)c2cccc(N(C)C)c2)c(O)c2ncccc12 (centres undefined)", "OVCAR-3 ovarian", 16.3),
    ("CCOC(=O)/C(F)=C/C1CC1C1CCN(C(=O)OC(C)(C)C)CC1 (centres undefined)", "OVCAR-3 ovarian", 111),
    ("COc1ccc(NC(=O)Cn2c(/C=C/c3ccc([N+](=O)[O-])cc3)nc3ccccc3c2=O)cc1", "OVCAR-3 ovarian", 60.2),
    ("COc1ccccc1NC(=O)N/N=C/c1c[nH]c2ccccc12", "OVCAR-3 ovarian", -32.1),
    ("CCN1CCN(Cc2ccc(C(=O)Nc3cccc(Nc4ccc5c(OC)cccc5n4)c3)cc2C(F)(F)F)CC1", "OVCAR-3 ovarian", 4.54),
    ("CCCSc1nnc(-c2c(C)nc3sccn23)o1", "OVCAR-3 ovarian", 98.5),
    ("O=C(N/N=C/c1occc1Br)c1[nH]c2ccc(Br)cc2c1-c1ccccc1", "OVCAR-3 ovarian", -73.7),
    ("Nc1nc2cc(-c3ccc4ncnc(NCc5ccccc5)c4c3)ccc2o1", "OVCAR-3 ovarian", -31.5),
    ("Cc1nn(-c2ccccc2)c2nc(C)n(C(=O)N/N=C/c3ccccc3)c(=O)c12", "OVCAR-3 ovarian", 118),
    ("COc1ccc2c(c1)C(=O)N(C)C2C1c2c(cc3c(c2OC)OCO3)CCN1C (centres undefined)", "OVCAR-3 ovarian", 9.03),
    ("CN1C(=O)/C(=C\\C(=O)c2cc3ccccc3oc2=O)c2ccccc21", "OVCAR-3 ovarian", 51.8),
    ("COc1ccc(Nc2ncnc3sc4c(c23)CCN(Cc2ccccc2)C4)cc1", "OVCAR-3 ovarian", 93.7),
    ("CN(C)c1nc(NCCNS(=O)(=O)c2ccc(C(=O)/C=C/c3ccccc3)cc2)nc(N2CCOCC2)n1", "OVCAR-3 ovarian", 111),
    ("CC1CCc2c(sc3nc(SCC(=O)c4cccc([N+](=O)[O-])c4)n(-c4ccccc4)c(=O)c23)C1 (centres undefined)", "OVCAR-3 ovarian", 111),
    ("CCOC(=O)/C(F)=C/C1CC1C(c1ccccc1)c1ccccc1 (centres undefined)", "OVCAR-3 ovarian", 103),
    ("CCC(=O)c1c2c(c3ccc4c5ccccc5ccc4n13)C(=O)c1ccccc1C2=O", "OVCAR-3 ovarian", 75.9),
    ("O=C(Nc1nc2ccc([N+](=O)[O-])cc2s1)Nc1ccccc1F", "OVCAR-3 ovarian", 24.6),
    ("CC(C)(C)c1cc(-c2cc(-c3ccccc3)[nH]c(=O)c2C#N)cc(C(C)(C)C)c1", "OVCAR-3 ovarian", 27.1),
    ("O=C(CSc1nc2sc3c(c2c(=O)n1-c1ccc(Cl)cc1)CCCC3)N/N=C/C=C/c1ccccc1", "OVCAR-3 ovarian", 78.3),
    ("Cn1cc(-c2cc(N)n3nc(-c4c[nH]c5ccccc45)cc3n2)c2cc(F)ccc21", "OVCAR-3 ovarian", 15.8),
    ("Nc1nnc(CS(=O)(=O)c2ccccc2)s1", "OVCAR-3 ovarian", 104),
    ("CC(=O)Nc1ccc(S(=O)(=O)Nc2ccc(-c3ccc4c(c3)NC(=O)/C4=C\\c3ccc[nH]3)cc2)cc1", "OVCAR-3 ovarian", 141),
]

###

// reported growth for each item listed
- Tested on: HT29 colon
- run description: NCI-60 one-dose screen, 48 h (100 = growth as untreated, 0 = no growth, -100 = all killed)
- test context: 10 µM unless noted
About 83,000 compounds went through this panel and 20% of them were active in at least one assay; those are over-represented in the sample as a whole.

# compound, growth, %
data = [
    ("Oc1cncc(-c2ccc3ncnc(N4CCc5cc(F)c(Cl)cc54)c3c2)c1", 57.8),
    ("O=C(c1cc2cc(OCCCN3CCC3)ccc2[nH]1)N1C[C@@H](CCl)c2c1cc(OCc1ccccc1)c1ccccc21", -25.2),
    ("CCN1C(=O)N(CC)C2NNC(Sc3c(C(=O)O)c4ccccc4n(CCC(C)C)c3=O)=NC21 (stereo not given)", -30),
    ("CCCCCCCCCc1ccc(C(=O)Nc2cc(C)ccc2C(=O)OC)cc1", 98.9),
    ("CCCCN1C(=O)/C(=C\\C(=O)c2cc3ccccc3oc2=O)c2ccccc21", 71.2),
    ("COc1c(B(O)O)cc(F)cc1-c1nc2ccc3[nH]ncc3c2c2c1COCC2", 74.2),
    ("CN1CCN(c2ccc3c4c(cccc24)C(=O)N(c2cccc(-c4nn(-c5ccccc5)cc4-c4nc5ccccc5s4)c2)C3=O)CC1", 45.6),
    ("O=C(Nc1ccc(F)cc1)Nc1nc2ccc([N+](=O)[O-])cc2s1", 4.5),
    ("COc1cc(/C=C/C(=O)c2cnn(-c3cc(=O)[nH]c4ccc(C)cc34)c2C)cc(OC)c1OC", -67.3),
    ("COc1ccc(NC(=O)CSc2nnc(-c3ccc(-c4nc5ccc(Cl)cc5[nH]4)cc3)o2)cc1", 47.8),
]

###

// reported growth for each item listed
- Tested on: UACC-257 melanoma
- run description: NCI-60 one-dose screen, 48 h (100 = growth as untreated, 0 = no growth, -100 = all killed)
- test context: 10 µM unless noted
Compounds without any hit were thinned out: in the full panel of roughly 83,000, 20% have a hit.
readout kind: growth (%)

# compound, experimental result
measured = [
    ("N#CC1=C(c2ccco2)Nc2c(c(-c3ccccc3)nn2-c2ccccc2)C12C(=O)Nc1ccc(Cl)cc12 (centres undefined)", 56.4),
    ("Cc1ccccc1NC(=O)c1cccc(NC(=O)CCl)c1", 47.5),
    ("Cc1oc(-c2ccccc2)nc1CN[C@@H]1C[C@@H]2C[C@H]([C@H]1C)C2(C)C", 8.4),
    ("COc1ccc(-c2cc(-c3cc(C(C)C)c(O)cc3C)nn2-c2ccc(S(N)(=O)=O)cc2)cc1", 60.5),
    ("Cc1ccc2nc(COc3ccc(C(=O)NNC(=O)Nc4ccc(Cl)c(C(F)(F)F)c4)cc3)[nH]c2c1", -17.4),
    ("COc1ccc(C(=O)c2cc(C(C)=O)c3c(C)cc(C)cn23)cc1", 79.2),
    ("CN1CCc2c(sc3ncnc(N/N=C/c4cccc(Cl)c4Cl)c23)C1", 76.5),
    ("COc1ccc(NC(=O)Cn2c(/C=C/c3cccc(Br)c3)nc3ccccc3c2=O)cc1", 71.1),
    ("COc1cc(/C=C/C(=O)c2cnn(-c3cc(=O)[nH]c4ccccc34)c2C)cc(OC)c1OC", 43.3),
    ("NS(=O)(=O)c1ccc(Nc2nc(SCC(=O)c3ccc(F)cc3)nc3ccccc23)cc1", 77.9),
    ("CCOc1ccc(-c2cc(-c3cc(C(C)C)c(O)cc3C)nn2-c2ccc(S(N)(=O)=O)cc2)cc1", 46.8),
    ("COc1cc(CNC(=O)C[C@H](C)CCC=C(C)C)ccc1OCc1cn(-c2ccccc2Cl)nn1", 60.3),
    ("COc1ccc2c(c1)N=c1c-2cc2c(O)[nH]c(=S)n2c1=O", 53.4),
    ("CCN1CCN(Cc2ccc(C(=O)Nc3cccc(Nc4ccc5c(OC)cccc5n4)c3)cc2C(F)(F)F)CC1", -82.8),
    ("Clc1ccc(-c2nc3c4c(-c5ccccc5)c(-c5ccccc5)n(Cc5ccccc5)c4ncn3n2)cc1", 3.18),
    ("O=C(N/N=C/c1occc1Br)c1[nH]c2ccc(Br)cc2c1-c1ccccc1", -68.2),
    ("Cc1ccc(C(=O)Nc2cc(-n3cnc(F)c3)cc(C(F)(F)F)c2)cc1C#Cc1cnc2cccnn12", 58),
    ("CC1=NN(C2=NC(=O)C(CC(=O)Nc3ccccc3C(F)(F)F)S2)C(c2ccc(N(C)C)cc2)C1 (centres undefined)", 58.1),
    ("C#CCCCNCCNc1ccnc2cc(Cl)ccc12", 0.503),
    ("O=C(CSc1nc2sc3c(c2c(=O)n1-c1ccc(Cl)cc1)CCCC3)NNC(=O)c1ccc(F)cc1", 106),
    ("COc1cc(C2CC(c3ccc(Cl)cc3)=Nc3c(N)nc(N)nc3N2)ccc1Oc1nc(Nc2ccc(F)cc2)nc(N(C)C)n1 (centres undefined)", 47.9),
    ("COc1c(F)ccc(C(=O)Nc2ccc3nc(NC(=O)C4CCCN(S(=O)(=O)c5ccc(C(C)(C)C)cc5)C4)sc3c2)c1F (centres undefined)", 69.3),
    ("O=C1NC(=NC23CC4CC(CC(C4)C2)C3)N/C1=C\\c1ccc2ncccc2c1", 50.6),
    ("O=C(N/N=C/c1ccc(Br)o1)c1[nH]c2ccc(Br)cc2c1-c1ccccc1", 26.2),
    ("Cn1ncc2c(N)nc(Oc3ccccc3-c3ccccc3)nc21", 63.5),
    ("C[C@@H]1CN(c2ccc3ncc(C#Cc4cncc(C(=O)Nc5ccc(CN6CCN(C)CC6)c(C(F)(F)F)c5)c4)n3n2)C[C@@H](C)O1", -86.6),
    ("NC(=Nc1ccc(OCCCCCCCCn2cnnn2)cc1)c1ccccc1", 49.7),
    ("Cn1cc(-c2cc(N)n3nc(-c4c[nH]c5ccccc45)cc3n2)c2cc(F)ccc21", 45.7),
    ("Cc1ccccc1Nc1nnc(-c2c[nH]c3ccccc23)o1", 49.7),
]
